Biological target: UniProt:Q96P20
Sequence (Q96P20 whole entry): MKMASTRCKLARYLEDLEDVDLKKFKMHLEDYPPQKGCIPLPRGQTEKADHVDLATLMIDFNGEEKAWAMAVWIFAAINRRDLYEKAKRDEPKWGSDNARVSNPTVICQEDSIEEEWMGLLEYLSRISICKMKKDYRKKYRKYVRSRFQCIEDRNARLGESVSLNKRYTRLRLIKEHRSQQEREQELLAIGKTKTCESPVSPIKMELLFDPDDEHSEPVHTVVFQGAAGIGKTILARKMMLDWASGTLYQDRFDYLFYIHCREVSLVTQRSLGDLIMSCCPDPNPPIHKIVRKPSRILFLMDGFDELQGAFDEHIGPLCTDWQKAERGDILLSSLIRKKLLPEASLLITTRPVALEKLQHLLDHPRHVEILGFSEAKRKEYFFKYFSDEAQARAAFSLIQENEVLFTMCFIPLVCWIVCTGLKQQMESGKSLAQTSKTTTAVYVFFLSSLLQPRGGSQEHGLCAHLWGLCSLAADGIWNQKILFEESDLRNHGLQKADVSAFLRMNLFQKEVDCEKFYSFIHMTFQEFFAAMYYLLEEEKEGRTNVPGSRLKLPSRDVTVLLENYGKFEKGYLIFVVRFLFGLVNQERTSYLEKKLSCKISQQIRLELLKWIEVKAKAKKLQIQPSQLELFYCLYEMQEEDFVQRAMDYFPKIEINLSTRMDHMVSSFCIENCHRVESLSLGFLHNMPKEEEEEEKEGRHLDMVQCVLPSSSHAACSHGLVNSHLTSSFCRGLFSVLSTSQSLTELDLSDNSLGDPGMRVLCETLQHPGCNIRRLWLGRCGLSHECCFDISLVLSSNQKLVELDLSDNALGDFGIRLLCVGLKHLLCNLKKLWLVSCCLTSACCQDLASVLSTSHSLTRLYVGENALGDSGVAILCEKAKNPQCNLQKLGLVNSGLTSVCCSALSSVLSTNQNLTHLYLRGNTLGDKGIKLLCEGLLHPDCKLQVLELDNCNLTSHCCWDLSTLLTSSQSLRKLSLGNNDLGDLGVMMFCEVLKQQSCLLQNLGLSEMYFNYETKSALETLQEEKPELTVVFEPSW
Experiment: THP-1 cells pyroptosis assay (LPS + nigericin, resazurin read-out)
Type: cell-based
Conditions: 1 μg/ml LPS, 5 μM nigericin
Where a name gives a salt, the structure may show the parent alone.
reported_endpoint: IC50

In [3]: df
Out[3]:
                                   compound    study_system            result
0  CCN1CC(S(=O)(=O)NC(=O)Nc2c(-c3ccnc(OC)c3)cc(F)cc2C(C)C)C1 [Example 166]  UniProt:Q96P20  1000 to 10000 nM
1  O=C(Nc1c2c(cc3c1CCC3)CCC2)NS(=O)(=O)C1CN(C2CS(=O)(=O)C2)C1 [Example 120, potassium salt]  UniProt:Q96P20  1000 to 10000 nM
2  CC(C)N1CCC(S(=O)(=O)NC(=O)Nc2c3c(cc4c2CCC4)CCC3)C1 (stereo not drawn) [Example 41, potassium salt]  UniProt:Q96P20         < 1000 nM
3  C#CCN1CCCC(S(=O)(=O)NC(=O)Nc2c3c(cc4c2CCC4)CCC3)C1 (stereo not drawn) [Example 59, potassium salt]  UniProt:Q96P20  1000 to 10000 nM
4  CC(C)C(=O)N1CCC(S(=O)(=O)NC(=O)Nc2c3c(cc4c2CCC4)CCC3)CC1 [Example 11, potassium salt]  UniProt:Q96P20  1000 to 10000 nM
5  CCN1CC(OC)C(S(=O)(=O)NC(=O)Nc2c3c(cc4c2CCC4)CCC3)C1 (stereo not drawn) [Example 150, potassium salt]  UniProt:Q96P20         < 1000 nM

Query: Quick check: IC50 of N#CCN1CCC(S(=O)(=O)NC(=O)Nc2c3c(cc4c2CCC4)CCC3)CC1 [Example 14, potassium salt] ?
Result: 1000 to 10000 nM

Query: Quick check: IC50 of O=C(Nc1c2c(cc3c1CCC3)CCC2)NS(=O)(=O)C1CN(C(CF)CF)C1 [Example 86, potassium salt] ?
Result: 1000 to 10000 nM

Query: Quick check: IC50 of CC1(C)CCC1N1CC(S(=O)(=O)NC(=O)Nc2c3c(cc4c2CCC4)CCC3)C1 (stereo not drawn) [Example 124, potassium salt] ?
Result: < 1000 nM

Query: Quick check: IC50 of CC(C)n1cc(S(=O)(=O)NC(=O)Nc2c3c(cc4c2CCC4)CCC3)ncc1=O [Example 181, sodium salt] ?
Result: < 1000 nM

Query: Quick check: IC50 of CCN1CC(S(=O)(=O)NC(=O)Nc2c(-c3ccnc(C#N)c3)cc(F)cc2C(C)C)C1 [Example 165] ?
Result: 1000 to 10000 nM

Query: Quick check: IC50 of CCN1CCC(N2CC(S(=O)(=O)NC(=O)Nc3c4c(cc5c3CCC5)CCC4)C2)CC1 [Example 73, potassium salt] ?
Result: 1000 to 10000 nM

Query: Quick check: IC50 of CC(C)c1cc(F)cc(-c2cccnc2)c1NC(=O)NS(=O)(=O)C1CN(C(C)C)C1 [Example 175] ?
Result: < 1000 nM

Query: Quick check: IC50 of CN(C)CCn1cc(S(=O)(=O)NC(=O)Nc2c3c(cc4c2CCC4)CCC3)ccc1=O [Example 184] ?
Result: 1000 to 10000 nM

Query: Quick check: IC50 of O=C(Nc1c2c(cc3c1CCC3)CCC2)NS(=O)(=O)C1CN(CCCO)C1 [Example 134, potassium salt] ?
Result: < 1000 nM
